tested on: CP286; test: qHTS profiling for inhibitors of Plasmodium falciparum proliferation (AID 504749); further: nearly all actives have a fitted effect of over 60% in size; details: P. falciparum in erythrocytes, SYBR Green DNA, 72 h; series mostly up to 28.7 µM
Inconclusive results are not listed. Activity calls are given as the source filed them. The call rests on the fitted dose curve; in most records, active means well fitted inhibition curve with a large enough effect; inconclusive means small, poorly fitted or top-dose-only effect; inactive means flat fitted curve, though single readings scatter.
endpoint-label: outcome

Solved entries:
* Cc1oncc1C(=O)Nc1ccc(C(F)(F)F)cc1 | inactive
* N=c1nc(N2CCCCC2)cc(N)n1O | inactive
* COc1ccc2nc(S(=O)Cc3ncc(C)c(OC)c3C)[nH]c2c1 (stereo not given) | inactive
* NCCCC(N)(C(=O)O)C(F)F (stereo not given) | inactive
* NS(=O)(=O)c1cc2c(cc1Cl)NC=NS2(=O)=O | inactive

Batch of 5 compounds: report outcome for each.
1. NC[C@H](O)c1ccc(O)c(O)c1
2. Nc1nc2c(ncn2COCCO)c(=O)[nH]1
3. O=C1CCC(N2C(=O)c3ccccc3C2=O)C(=O)N1 (stereo not given)
4. Cn1cnc([N+](=O)[O-])c1Sc1ncnc2nc[nH]c12
5. CCCCNc1cc(C(=O)O)cc(S(N)(=O)=O)c1Oc1ccccc1

1: inactive; 2: inactive; 3: inactive; 4: inactive; 5: inactive

// data source = PubChem BioAssay (NCATS)
